Hey, just so you know, these numbers are from patent US11926623B2.

Experiment: log P by HPLC on reversed-phase column (C18), EEC Directive 79/831 Annex V.A8
Format: physicochemical
Details: LC-UV in the acidic range, formic acid in water / acetonitrile, read-out: log P[acidic]
Experimental: The log P values were determined according to EEC Directive 79/831 Annex V.A8 by HPLC (high-performance liquid chromatography) on a reversed-phase column (C18) using the following methods: ^[a] […] Calibration was carried out using a homologous series of straight-chain alkan-2-ones (having 3 to 16 carbon atoms) with known log P values. The values between successive alkanones are determined by linear regression.
Reported chromatographic logP values for a set of compounds
Answer with the value's number alone.

Worked examples follow.
CCS(=O)(=O)c1c(-c2nc3cc(C(F)(F)F)cnc3n2C)nc(-c2ccc(C3(C#N)CC3)cc2)n1C [Example I-5]: 3.14
CCS(=O)(=O)c1c(-c2nc3cc(C(F)(F)F)cnc3n2C)nc(C2CC(C3CC3)=NO2)n1C (stereo not drawn) [Example I-1]: 2.73

Shift focus to the following entry.
Briefly, chromatographic logP measured for CCS(=O)(=O)c1c(-c2nc3cc(C(F)(F)F)cnc3n2C)nc(-n2ccc(C3CC3)n2)n1C [Example I-9] : 3.46
